# Test system: NF-κB
# Procedure Summary: NF-κB reporter gene assay (TNF-α stimulated A549/NF-κB-luc cells)
# Type: cell-based
# Condition Description: Homo sapiens, TNF-α stimulation
Observable: IC50 (nM)

- Smiles Data: "Cc1ccccc1CN1N=C(c2ccc(Cl)cc2)c2c(sc(C)c2C)-n2c(C)nnc21"
  Observable: "IC50"
  Measure Unit: "nM"
  Measured Result: 291

(P) Cc1sc2c(c1C)C(c1ccc(Cl)cc1)=NN(Cc1cccnc1Cl)c1nnc(C)n1-2
(Q) CC(=O)Nc1cc(CN2N=C(c3ccc(Cl)cc3)c3c(sc(C)c3C)-n3c(C)nnc32)ccn1
Look at P and Q . Which one has the lower recorded IC50 number? // respond with label for picked entry P

(A) Cc1sc2c(c1C)C(c1ccc(Cl)cc1)=NN(Cc1ccccc1Cl)c1nnc(C)n1-2
(B) Cc1sc2c(c1C)C(c1ccc(Cl)cc1)=NN(Cc1cc(F)cnc1F)c1nnc(C)n1-2
Hello, I am sorting some records. Could you say if A or B has the smaller IC50 value? Give the chosen item's label as your response. A

(I) Cc1cccc(CN2N=C(c3ccc(Cl)cc3)c3c(sc(C)c3C)-n3c(C)nnc32)c1
(II) Cc1sc2c(c1C)C(c1ccc(Cl)cc1)=NN(Cc1cccs1)c1nnc(C)n1-2
(III) Cc1sc2c(c1C)C(c1ccc(Cl)cc1)=NN(Cc1cc(Cl)ccn1)c1nnc(C)n1-2
(IV) Cc1nnc2n1-c1sccc1C(c1ccc(Cl)cc1)=NN2Cc1ccccc1
Reorder: IC50, max to min. Present the labels in the sequence the task asks for. IV, III, II, I

(a) Cc1sc2c(c1C)C(c1ccc(N)cc1)=NN(Cc1cccnc1)c1nnc(C)n1-2
(b) COc1ncccc1CN1N=C(c2ccc(Cl)cc2)c2c(sc(C)c2C)-n2c(C)nnc21
(c) Cc1sc2c(c1C)C(c1ccc(Cl)cc1)=NN(Cc1cccc(F)c1)c1nnc(C)n1-2
(d) COc1cccc(C2=NN(Cc3cccnc3)c3nnc(C)n3-c3sc(C)c(C)c32)c1
Order field: IC50 | Direction: descending (largest first) List labels; respect the requested ordering. d, b, a, c
